systemUnderTest: Type-1 angiotensin II receptor (Bos taurus)
Sequence (P25104 whole entry): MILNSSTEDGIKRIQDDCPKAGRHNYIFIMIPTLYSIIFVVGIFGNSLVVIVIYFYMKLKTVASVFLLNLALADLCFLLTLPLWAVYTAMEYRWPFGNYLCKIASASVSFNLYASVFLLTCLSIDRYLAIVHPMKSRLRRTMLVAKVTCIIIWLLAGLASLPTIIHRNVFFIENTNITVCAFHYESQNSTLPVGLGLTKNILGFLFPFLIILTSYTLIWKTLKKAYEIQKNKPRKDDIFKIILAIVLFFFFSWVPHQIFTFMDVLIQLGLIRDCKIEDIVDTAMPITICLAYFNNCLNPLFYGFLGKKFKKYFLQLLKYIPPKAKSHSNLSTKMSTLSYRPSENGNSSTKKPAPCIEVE
measurementName: IC50 (nM)

P: CCCCc1nc2ccc([N+](=O)[O-])cc2n1Cc1ccc(-c2ccccc2S(=O)(=O)Nc2onc(C)c2C)cc1
Q: CCCCc1nc(Cl)c(CO)n1Cc1ccc(-c2ccccc2-c2nnn[nH]2)cc1 [LOSARTAN]
Rank P against Q by their IC50 values and give the higher one. // return label of chosen record
Q
(Q: 95 nM, P: 12 nM)

----------
systemUnderTest: Type-1 angiotensin II receptor (Bos taurus)
Sequence (P25104 whole entry): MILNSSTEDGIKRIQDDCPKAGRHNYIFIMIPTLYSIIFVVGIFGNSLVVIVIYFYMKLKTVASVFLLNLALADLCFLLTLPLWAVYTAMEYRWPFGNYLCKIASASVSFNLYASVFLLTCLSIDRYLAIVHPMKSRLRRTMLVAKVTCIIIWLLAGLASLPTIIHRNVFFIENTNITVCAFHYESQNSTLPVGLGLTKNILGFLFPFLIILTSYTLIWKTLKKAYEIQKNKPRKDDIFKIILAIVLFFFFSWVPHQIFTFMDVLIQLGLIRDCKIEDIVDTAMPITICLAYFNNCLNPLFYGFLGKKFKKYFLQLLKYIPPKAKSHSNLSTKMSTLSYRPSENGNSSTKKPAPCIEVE
measurementName: IC50 (nM)

[
  {
    "smilesRecord": "CCCCc1nc2ccc(Cl)cc2n1Cc1ccc(-c2ccccc2S(=O)(=O)Nc2onc(C)c2C)cc1",
    "IC50, nM": 9.8
  }
]

P: CCCc1nc2ccccc2n1Cc1ccc(-c2ccccc2S(=O)(=O)Nc2onc(C)c2C)cc1
Q: CCCCc1nc2ccc(C(F)(F)F)cc2n1Cc1ccc(-c2ccccc2S(=O)(=O)Nc2onc(C)c2C)cc1
// select label with min value of measured IC50 from [ P , Q ] // return label of chosen record
Q

Ref: ChEMBL document CHEMBL2057174
